# assayed target: c-Src SH2;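 also: peptide library displayed on the E. coli surface as eCPX fusions, selected cells deep-sequenced, score is each peptide's frequency after selection divided by its frequency in the input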
# method notes: SH2 binding enrichment of the phosphorylated peptide, bacterial display (enrichment ratio); higher = better substrate or ligand; peptides without Tyr show the background
So basically: SH2 binding enrichment at 0.8 or higher? That is True. Lower than 0.8? That is False.

# sequence, class
measured = [
    ("VFAADYFKLLG [ROR2_Y645_YF]", "False"),
    ("LLVVVYKYRCY [PSEN1_Y154_L153V]", "True"),
    ("KILPEYLSNWT [AIFM1_Y347]", "False"),
    ("NGEDLYAGSTD [XRCC1_Y515_P514L]", "False"),
    ("FVHDNYVIWRT [CPS1_Y1450_R1453W]", "True"),
    ("CTTIHYNNMCN [TP53_Y234_Y236N]", "True"),
]

Incoming: Decide: SH2 binding enrichment of LEKISYVYMKR [SSX7_Y48] >= 0.8?
Outgoing: True
